Entry source: PubChem BioAssay

protocol: inhibition of 3D7 malaria parasite growth – strain 3D7 (AID 2306);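 note: 0% = DMSO wells and 100% = chloroquine plus artemisinin control wells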
condition.notes: P. falciparum 3D7 erythrocytic growth, LDH absorbance, 72 h; at 2 µM; stronger effect = higher value
readout.name: growth inhibition (%)
Field: numeric (%). Do not append units.

Before answering, review these 10 worked examples.
compound: CN(C)c1cccc(CCNCCc2c[nH]c3ccc(Cl)cc23)c1
growth inhibition [%]: 94

compound: CNCC(O)c1cc(Cl)c(Cl)cc1C (stereo not drawn)
growth inhibition [%]: 98

compound: O=C(/C=C/C=C/c1ccccc1)NC1CCC(CN2CCC(c3c[nH]c4ccccc34)CC2)CC1 (stereo not drawn)
growth inhibition [%]: 100

compound: Cc1cc(N(C)C2CCN(C)CC2)nc(Nc2ccc(Br)cc2)n1
growth inhibition [%]: 100

compound: O=C(NC1CCN(CC2(c3ccc(Cl)cc3)CCC2)CC1)c1ccn[nH]1
growth inhibition [%]: 96

compound: Cc1[nH]c2ccccc2c1C1=CCN(CCCCC23CCCc4cccc(c42)NC3=O)CC1 (stereo not drawn)
growth inhibition [%]: 95

compound: COC(=O)/C=C/c1ccc(CC(C)NCC(O)c2cccc(C(F)(F)F)c2)cc1 (stereo not drawn)
growth inhibition [%]: 97

compound: O=C(NC1CCC(CN2CCC(c3c[nH]c4ccccc34)CC2)CC1)c1cn(Cc2ccccc2)c2ccccc12 (stereo not drawn)
growth inhibition [%]: 91

compound: CCC1=C[C@@H]2CN(C1)Cc1c([nH]c3ccccc13)[C@@](C(=O)OC)(c1cc3c(cc1OC)N(C)[C@H]1[C@@](O)(C(=O)OC)[C@H](O)[C@]4(CC)C=CCN5CC[C@]31[C@@H]54)C2
growth inhibition [%]: 98

compound: CC(Cc1ccc(SC(C)(C)C)cc1)NCC(O)c1cccc(Cl)c1 (stereo not drawn)
growth inhibition [%]: 99

Given the entry C=Cc1cc(OC)c2c(c1)c(=O)oc1c2cc(OC)c2c(O)ccc([C@H]3O[C@H]([C@@H](C)O)[C@H](O)[C@H]3O)c21 , report its measured growth inhibition.
95

Given the entry Brc1cnc(NC2=NCCN2)c(Br)c1 , report its measured growth inhibition.
99

Given the entry CC(C)(C)c1ccc(Cn2nc(C(=O)N3CCN(C(=O)C4CCCO4)CC3)c3ccccc32)cc1 (stereo not drawn) , report its measured growth inhibition.
90

Given the entry O=C(COc1ccc(Cl)cc1)N1CCC(CN2CCC(c3c[nH]c4ccccc34)CC2)CC1 , report its measured growth inhibition.
89

---

protocol: HDN33 neuroblastoma growth inhibition, cell-based, chromothripsis tumors, cisplatin or BGB combos (AID 1671450);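 note: cells exposed to compound for four days; 0% = vehicle DMSO and 100% = cell killing by high DMSO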
condition.notes: HDN33 neuroblastoma cells, cisplatin combo, at 5 µM, stronger effect = higher value
Lab note: anything with inhibition at or over -10% counts as 1.0; the rest go in 0.0.

Worked set:
compound: CCC1(c2ccccc2)C(=O)NC(=O)NC1=O
assigned.class: 1.0

compound: COc1cc(C2c3cc4c(cc3C(O)C3COC(=O)C23)OCO4)cc(OC)c1OC (stereo not drawn)
assigned.class: 1.0

compound: Cn1c(COP(=O)(NCCBr)NCCBr)cnc1[N+](=O)[O-]
assigned.class: 1.0

Would you say O=C(O)CCCc1ccc(N(CCCl)CCCl)cc1 shows inhibition at minimum -10%?
0.0

Would you say Cc1c2ccncc2c(C)c2c1[nH]c1ccccc12 shows inhibition at minimum -10%?
1.0

---

protocol: sensitizers of A549 cells to miR-34 induction, primary screen, imaging, A549 dox-inducible miR-34, nuclei and caspase counts (AID 1347080)
condition.notes: A549 miR-34 inducible, Hoechst nuclei count, 48 h; stronger effect = lower value; cell number ratio, induced over uninduced
Calls of active or inactive are those of the source.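 How the source made its calls: active means compounds whose cell count with miR-34 switched on is under 0.7 times the count with it off; inactive means the rest.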
readout.name: fold change

Before answering, review these 5 worked examples.
molecule: C[C@@H]1O[C@@H](O[C@@H]2C[C@@H](O)[C@]3(CO)[C@H]4[C@H](O)C[C@]5(C)[C@@H](C6=CC(=O)OC6)CC[C@]5(O)[C@@H]4CC[C@]3(O)C2)[C@H](O)[C@H](O)[C@H]1O
observed.result: 0.807 (inactive)

molecule: CCCCCCCC/C=C\CCCCCCCC(=O)OC[C@@H](COP(O)(O)=S)OC
observed.result: 1.15 (inactive)

molecule: Clc1ccc(C2=CCCC3CCC2N3)cn1 (centres undefined)
observed.result: 0.907 (inactive)

molecule: CN1CCC2=C[C@H](O)[C@H]3OC(=O)c4cc5c(cc4[C@H]3[C@@H]21)OCO5
observed.result: 0.881 (inactive)

molecule: CCCCC/C=C\C/C=C\C/C=C\C/C=C\CCCCOC(CO)CO
observed.result: 0.983 (inactive)

Given the entry CCCCC/C=C\C/C=C\C/C=C\C/C=C\CCCC(=O)N[C@@H](C)CO , report its measured fold change.
1.04 (inactive)

Given the entry CC(C)n1cnc2c(C(=O)N[C@H]3CN4CCC3CC4)cc(Cl)cc21 , report its measured fold change.
0.928 (inactive)

Given the entry COc1cc2c(cc1O)C[C@H]1c3c(cc(O)c(OC)c3-2)CCN1C , report its measured fold change.
0.885 (inactive)

Given the entry O=C1OCCN1/N=C/c1ccc([N+](=O)[O-])o1 , report its measured fold change.
0.857 (inactive)

---

protocol: polyglutamine-triggered caspase-3 activation inhibitors, cell-based (AID 1583)
condition.notes: polyglutamine-induced caspase-3 activation, cell assay; stronger effect = higher value; concentration not given here
// inhibition lookup, one value per entry
Field: numeric (%). Do not append units.

molecule: ClC1=C(Cl)C2(Cl)C3C4CC(C5OC45)C3C1(Cl)C2(Cl)Cl (centres undefined)
unit.descriptor: %
observed.result: 8.56

Given the entry C/C=C(/C)C(=O)O[C@H]1CC[C@@]2(C)[C@@H]3CC[C@H]4[C@]5(O)C[C@H](O)[C@@]6(O)[C@@H](CN7C[C@@H](C)CC[C@H]7[C@@]6(C)O)[C@]5(O)C[C@@]42O[C@]13O , report its measured inhibition.
-10.4

Given the entry N#C/C(=C\c1ccc(O)cc1)C(=O)O , report its measured inhibition.
-8.72

Given the entry CC(C)[N+](C)(CCC(C(N)=O)(c1ccccc1)c1ccccc1)C(C)C , report its measured inhibition.
22

Given the entry C=CCC1(CC(C)C)C(=O)NC(=O)NC1=O , report its measured inhibition.
-3.41

Given the entry CN[C@@H](C)[C@@H](O)c1ccccc1 , report its measured inhibition.
11.2

Given the entry CN1CC[C@]23c4c5ccc(O)c4O[C@H]2C(=O)CCC3[C@H]1C5 (some centres undefined) , report its measured inhibition.
7.55

Given the entry CC[C@@H]1[C@@H](O)N2C3C[C@H]1C1C(O)[C@]4(C[C@@H]12)c1ccccc1N(C)[C@@H]34 (some centres undefined) , report its measured inhibition.
7.74

Given the entry O=C(CCCN1CCC2(CC1)C(=O)NCN2c1ccccc1)c1ccc(F)cc1 , report its measured inhibition.
-14.9

---

protocol: stimulators of nuclear beta-catenin in C2C12, primary screen, imaging, WNT3A-conditioned medium, mouse C2C12, NPC library (AID 1117326); note: reference of the scale not given here
condition.notes: stimulation, at 2 µM, stronger effect = higher value
// nuclear beta-catenin stimulation lookup, one value per entry
Field: numeric (%). Do not append units.

Before answering, review these 3 worked examples.
molecule: CC(=O)O[C@H]1C[C@H](O[C@H]2[C@@H](O)C[C@H](O[C@@H]3[C@@H](O)C[C@H](O[C@H]4CC[C@@]5(C)[C@H](CC[C@@H]6[C@H]5C[C@@H](O)[C@]5(C)[C@@H](C7=CC(=O)OC7)CC[C@]65O)C4)O[C@@H]3C)O[C@@H]2C)O[C@H](C)[C@H]1O[C@@H]1O[C@H](CO)[C@@H](O)[C@H](O)[C@@H]1O
unit.descriptor: %
nuclear beta-catenin stimulation: 0.9
//
molecule: CCCCNC(C)(C)[P+](=O)O
unit.descriptor: %
nuclear beta-catenin stimulation: -0.8
//
molecule: CCOP(=S)(OCC)O/N=C(\C#N)c1ccccc1
unit.descriptor: %
nuclear beta-catenin stimulation: 0.3

Given the entry ClCCN1CCCC1 , report its measured nuclear beta-catenin stimulation.
-0.2

Given the entry CC(C)NCC(O)c1ccc(N)c(C#N)c1 (stereo not given) , report its measured nuclear beta-catenin stimulation.
-0.3

---

system.name: Single-stranded DNA-binding protein (Escherichia coli (strain K12)) (UniProt P0AGE0)
protocol: E. coli SSB displacement from DNA, counter-screen for HCV NS3 helicase inhibitor project, biochemical, fluorescence polarization, NIH Clinical Collection (AID 743271)
condition.notes: stronger effect = higher value, concentration not given here
readout.name: inhibition (%)
Field: numeric (%). Do not append units.

Before answering, review these 4 worked examples.
compound: O=C(O)C(Cl)Cl
unit.descriptor: %
inhibition: 0.67
//
compound: CN1CC[C@]2(c3cccc(O)c3)Cc3nc4ccccc4cc3C[C@H]2C1
unit.descriptor: %
inhibition: -1.97
//
compound: Clc1ccc(COC(Cn2ccnc2)c2ccc(Cl)cc2Cl)cc1 (stereo not given)
unit.descriptor: %
inhibition: 4.1
//
compound: CN1CC[C@@]23CCCC[C@@H]2[C@@H]1Cc1ccc(O)cc13
unit.descriptor: %
inhibition: -3.18

Please turn your attention to the following entry.
Given the entry Cc1ccc(-c2nc3ccc(C)cn3c2CC(=O)N(C)C)cc1 , report its measured inhibition.
-2.41
